Value source: ChEMBL document CHEMBL1151705

# System: Haemophilus influenzae
# experimental protocol: Antimicrobial activity against drug-susceptible Haemophilus influenzae 4 after 20 hrs by agar dilution method
# Assay type: functional
# conditions: Haemophilus influenzae, 20 h; read-out: MIC
recorded endpoint: MIC (µg/mL)
Answer in µg/mL, number only, no unit symbol.

Below are worked cases with known answers.
{"columns": ["compound", "MIC, µg/mL"],
 "data": [
  ["CCOC(=O)[C@H]1[C@H](C)O[C@@H](O[C@H]2[C@H](N(C)C)[C@@H](O)[C@H](O[C@H]3[C@@H](CC=O)C[C@@H](C)[C@@H](O)CN(C)CC(/C=C/Cc4cccc5cccnc45)CCOC(=O)C[C@@H](OC(=O)CC)[C@@H]3OC)O[C@@H]2C)C[C@]1(C)O (some centres undefined)", 8],
  ["CCOC(=O)[C@H]1[C@H](C)O[C@@H](O[C@H]2[C@H](N(C)C)[C@@H](O)[C@H](O[C@H]3[C@@H](CC=O)C[C@@H](C)[C@@H](OC(C)=O)CN(CCCCc4ccccc4)CCNC(=O)C[C@@H](OC(=O)CC)[C@@H]3OC)O[C@@H]2C)C[C@@]1(C)OC(C)=O", 8]
]}

So, CCOC(=O)[C@H]1[C@H](C)O[C@@H](O[C@H]2[C@H](N(C)C)[C@@H](O)[C@H](O[C@H]3[C@@H](CC=O)C[C@@H](C)[C@@H](O)CN(C)CC(/C=C/Cc4ccnc5ccccc45)CCOC(=O)C[C@@H](OC(=O)CC)[C@@H]3OC)O[C@@H]2C)C[C@@]1(C)O (stereo in doubt; form 1) ? Its MIC was 8
